System: NCI-H226 lung
procedure-summary: NCI tumour cell line growth inhibition, 48 h
Consider the following molecules and their measured TGI readings.
measurement-name: TGI

1. Cc1ccc(NC(=O)CC/C(CC(=O)C(C)(C)C)=N/NC(=O)C(N)=O)cc1C; > 100 µM
2. CC(NC(=O)C(OC(=O)C(C)NC(=O)OC(C)(C)C)C(C)C)C(=O)OC(C(=O)O)C(C)C (stereo unspecified); > 100 µM
3. O=c1[nH][nH]c(=O)[nH]1; > 100 µM
4. O=C(CCN1CCOCC1)Nc1ccc(F)cc1F; > 100 µM
5. N#Cc1nc(C2CC2)oc1N; > 100 µM
6. CC1CC(C)[C@H](O)C([C@H](O)CC2CC(=O)N(C)C(=O)C2)C1 (stereo partly specified); > 100 µM
7. CC1(C)C(c2ccccc2)C12CCC1(C2=O)C(c2ccccc2)C1(C)C (stereo unspecified); 36.3 µM
8. O=C1c2ccccc2NC(c2cc(Cl)cc(Cl)c2O)N1CCc1ccccn1 (stereo unspecified); > 100 µM
9. c1cc(-c2csc(-c3ccsc3)c2)cs1; 83.2 µM
10. C[C@@]12c3c4ccc(C=O)c3Oc3ccc(C=O)c(c31)Oc1c(C=O)ccc(c12)O4; > 100 µM
11. O=C(Cc1nc2ccccc2c(=O)n1-c1c(Cl)cccc1Cl)c1ccncc1; > 10 µM

Value source: PubChem BioAssay (NCI)
